Hey, just so you know, these numbers are from patent US9284345B2.

Readings of AUC for the listed molecules
assayOverview: in vivo
recordedConditions: male, Sprague-Dawley, rat, in vivo, po, 0.5 mg
Lab book: enter the figure in ng·h/mL, no units written.

• CC(C)(O)C(=O)Nc1ccc([N+](=O)[O-])c(C(F)(F)F)c1 [Hydroxyflutamide, reference compound] = 5380
• CC(O)(CS(=O)(=O)c1ccc(F)cc1)C(=O)Nc1ccc(C#N)c(C(F)(F)F)c1 (stereo not drawn) [bicalutamide] = 8500

Entry CC(C)C(=O)Nc1ccc([N+](=O)[O-])c(C(F)(F)F)c1 [Flutamide, reference compound] ; AUC = 39

* * *

Readings of In Vivo Intact Rat % change vs Intact CONT (Intact CONT = +100%; CX CONT = 0%) VP for the listed compounds
System: Intact Rat
assayOverview: In vivo activity in intact rat (organ and muscle weight)
recordedConditions: rat, in vivo

Worked cases, In Vivo Intact Rat % change vs Intact CONT (Intact CONT = +100%; CX CONT = 0%) VP given:
• CC(C)C(=O)Nc1ccc([N+](=O)[O-])c(C(F)(F)F)c1 [Flutamide, reference compound] = +75 ± 4%
• CCC1CC2(C)C(CCC2(O)Cc2cc[n+]([O-])cc2)C2CCc3c(ccc(C#N)c3F)C12 (stereo not shown) = +84 ± 4%
• CCC1CC2(C)C(CCC2(O)Cc2cc[n+]([O-])cc2F)C2CCc3c(ccc(C#N)c3F)C12 (stereo not shown) = +47 ± 5%

Entry C[C@H]1C[C@@]2(C)C(CC[C@@]2(O)Cc2ccncc2)C2CCc3c(ccc(C#N)c3F)C21 (stereo partly shown) ; In Vivo Intact Rat % change vs Intact CONT (Intact CONT = +100%; CX CONT = 0%) VP = +72 ± 6%

Entry CC12CCC3c4ccc(C#N)c(F)c4CCC3C1CCC2(O)Cc1ccc(-c2ccc[n+]([O-])c2)cc1 (stereo not shown) ; In Vivo Intact Rat % change vs Intact CONT (Intact CONT = +100%; CX CONT = 0%) VP = +89 ± 5%

Entry CC1CC2(C)C(CCC2(O)Cc2cc[n+]([O-])cc2F)C2CCc3c(ccc(C#N)c3F)C12 (stereo not shown) ; In Vivo Intact Rat % change vs Intact CONT (Intact CONT = +100%; CX CONT = 0%) VP = +67 ± 10%

Entry CC[C@H]1C[C@@]2(C)C(CC[C@@]2(O)Cc2ccncc2)C2CCc3c(ccc(C#N)c3F)C21 (stereo partly shown) ; In Vivo Intact Rat % change vs Intact CONT (Intact CONT = +100%; CX CONT = 0%) VP = +76 ± 11%

* * *

Readings of In Vivo Agonist Rat CX % change vs CX (DHT CONT = +100%) Bulbo for the listed molecules
Test system: Immature Rat CX

* C[C@H]1C[C@@]2(C)C(CC[C@@]2(O)Cc2ccncc2)C2CCc3c(ccc(C#N)c3F)C21 (stereo partly shown) | +71 ± 15%
* C[C@H]1C[C@@]2(C)C(CC[C@@]2(O)Cc2ccncc2F)C2CCc3c(ccc(C#N)c3F)C21 (stereo partly shown) | +97 ± 19%
* CC12CCC3c4ccc(C#N)c(F)c4CCC3C1CCC2(O)Cc1ccc(-c2ccc[n+]([O-])c2)cc1 (stereo not shown) | +115 ± 4%

Alright, here's another molecule for you.
Entry CC1CC2(C)C(CCC2(O)Cc2cc[n+]([O-])cc2F)C2CCc3c(ccc(C#N)c3F)C12 (stereo not shown) ; In Vivo Agonist Rat CX % change vs CX (DHT CONT = +100%) Bulbo = +97 ± 9%
